meta.source: patent EP2100894A1

experimentalSystem: PIk1 (Homo sapiens)
Construct: His tag (histidine tag) (N)
Sequence (P53350 whole entry): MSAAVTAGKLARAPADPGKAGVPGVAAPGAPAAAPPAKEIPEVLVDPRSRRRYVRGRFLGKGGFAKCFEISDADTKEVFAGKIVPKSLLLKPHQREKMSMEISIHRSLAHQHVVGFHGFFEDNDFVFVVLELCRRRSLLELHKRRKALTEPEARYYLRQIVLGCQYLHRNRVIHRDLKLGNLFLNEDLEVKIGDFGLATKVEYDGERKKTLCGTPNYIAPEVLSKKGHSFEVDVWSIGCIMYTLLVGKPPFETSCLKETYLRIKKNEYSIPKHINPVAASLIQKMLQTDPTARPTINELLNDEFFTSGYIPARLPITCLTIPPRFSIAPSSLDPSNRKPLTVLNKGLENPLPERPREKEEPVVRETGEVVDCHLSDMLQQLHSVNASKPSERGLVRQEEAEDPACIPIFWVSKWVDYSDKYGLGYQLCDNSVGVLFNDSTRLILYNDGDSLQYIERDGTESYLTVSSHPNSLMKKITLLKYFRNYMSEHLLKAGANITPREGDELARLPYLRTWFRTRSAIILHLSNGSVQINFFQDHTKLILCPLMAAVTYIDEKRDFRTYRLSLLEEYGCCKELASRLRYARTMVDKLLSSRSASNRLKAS
method: PIk1 kinase activity inhibition assay (33P incorporation into alpha casein, flash plates)
appliedConditions: recombinant N-terminally histidine-tagged PIk1, alpha casein as substrate, 100 nM Li-ATP, 80 minutes at 30°C
pIC50: −log10 of the molar value.
measuredProperty: pIC50

These solved cases illustrate the format of a correct answer.
compound	measuredProperty	observed
COc1cc(C(=O)NC2CCN(C)CC2)ccc1Nc1ncc2c(n1)c(-c1ccccc1C)c(OCC1CC1)c(=O)n2C [Example 71]	pIC50	> 7.00
COc1cc(C(=O)NC2CCN(C)CC2)ccc1Nc1ncc2c(n1)c(-c1cnn(C)c1)c(OC)c(=O)n2C [Example 35]	pIC50	> 6.00
C/C=C/c1c(OC2CCC2)c(=O)n(C)c2cnc(Nc3ccc(C(=O)NC4CCN(C)CC4)cc3OC)nc12 [Example 43]	pIC50	> 8.00
COc1cc(C(=O)NC2CCN(C)CC2)ccc1Nc1ncc2c(n1)c(-c1cccs1)c(OC)c(=O)n2C [Example 5]	pIC50	> 7.00
COc1cc(C(=O)NC2CCN(C)CC2)ccc1Nc1ncc2c(n1)c(-c1ccccc1)c(OCC1CC1)c(=O)n2C [Example 51]	pIC50	> 8.00
C/C=C/c1c(OC(C)C2CC2)c(=O)n(C)c2cnc(Nc3ccc(C(=O)NC4CCN(C)CC4)cc3OC)nc12 (centres unmarked) [Example 45]	pIC50	> 7.00
COc1cc(C(=O)NC2CCN(C)CC2)ccc1Nc1ncc2c(n1)c(-c1ccsc1)c(OCC1CC1)c(=O)n2C [Example 32]	pIC50	> 7.00
C/C=C/c1c(OC)c(=O)n(C)c2cnc(Nc3ccc(C(=O)NC4CCN(C)CC4)cc3OC)nc12 [Example 2]	pIC50	> 7.00
COc1cc(C(=O)NC2CCN(C)CC2)ccc1Nc1ncc2c(n1)c(C1CC1)c(OC)c(=O)n2C [Example 19]	pIC50	> 7.00
COc1cc(C(=O)NC2CCN(C)CC2)ccc1Nc1ncc2c(n1)c(-c1ccoc1)c(OC)c(=O)n2C [Example 11]	pIC50	> 7.00

Considering C/C=C/c1c(OC2CC2)c(=O)n(C)c2cnc(Nc3ccc(C(=O)NC4CCN(C)CC4)cc3OC)nc12 [Example 56] , its pIC50 with PIk1 (Homo sapiens) was recorded as > 8.00

Considering COc1cc(C(=O)NC2CCN(C)CC2)ccc1Nc1ncc2c(n1)c(-c1cccs1)c(OCC1CC1)c(=O)n2C [Example 53] , its pIC50 with PIk1 (Homo sapiens) was recorded as > 8.00

Considering C/C=C/c1c(OCC)c(=O)n(C)c2cnc(Nc3ccc(C(=O)NC4CCN(C)CC4)cc3OC)nc12 [Example 18] , its pIC50 with PIk1 (Homo sapiens) was recorded as > 7.00

Considering COc1cc(C(=O)NC2CCN(C)CC2)ccc1Nc1ncc2c(n1)c(-c1ccc(F)cc1)c(OCC1CC1)c(=O)n2C [Example 52] , its pIC50 with PIk1 (Homo sapiens) was recorded as > 8.00

---

IC50: recorded values
experimentalSystem: PIk1 (Homo sapiens)
Construct: His tag (histidine tag) (N)
method: PIk1 kinase activity inhibition assay (33P incorporation into alpha casein, flash plates)
appliedConditions: recombinant N-terminally histidine-tagged PIk1, alpha casein as substrate, 100 nM Li-ATP, 80 minutes at 30°C

These solved cases illustrate the format of a correct answer.
compound	measuredProperty	observed
COc1cc(C(=O)NC2CCN(C)CC2)ccc1Nc1ncc2c(n1)c(-c1cc[nH]c1)c(OCC1CC1)c(=O)n2C [Example 76]	IC50	< 0.01 µM
C/C=C/c1c(OC)c(=O)n(C)c2cnc(Nc3ccc(C(=O)NCc4cncn4C)cc3OC)nc12 [Example 20]	IC50	< 0.1 µM
COc1cc(C(=O)NC2CCN(C)CC2)ccc1Nc1ncc2c(n1)c(CC1=CCOC1)c(OC)c(=O)n2C [Example 23]	IC50	< 1 µM

Considering C/C=C/c1c(OC)c(=O)n(C)c2cnc(Nc3ccc(C(=O)N[C@@H](C)Cc4c[nH]cn4)cc3OC)nc12 [Example 29] , its IC50 with PIk1 (Homo sapiens) was recorded as < 0.1 µM

Considering C/C=C/c1c(OCC(C)C)c(=O)n(C)c2cnc(Nc3ccc(C(=O)NC4CCN(C)CC4)cc3OC)nc12 [Example 41] , its IC50 with PIk1 (Homo sapiens) was recorded as < 0.01 µM

Considering COc1cc(C(=O)NC2CCN(C)CC2)ccc1Nc1ncc2c(cc(OCc3ccccc3)c(=O)n2C)n1 [Example 1] , its IC50 with PIk1 (Homo sapiens) was recorded as < 1 µM

Considering COc1cc(C(=O)NC2CCN(C)CC2)ccc1Nc1ncc2c(n1)c(-c1cscc1C)c(OC)c(=O)n2C [Example 33] , its IC50 with PIk1 (Homo sapiens) was recorded as < 1 µM

Considering COc1cc(C(=O)NC2CCN(C)CC2)ccc1Nc1ncc2c(n1)c(C1=C(C)CCC1)c(OC)c(=O)n2C [Example 15] , its IC50 with PIk1 (Homo sapiens) was recorded as < 1 µM

Considering COc1cc(C(=O)NCCC2CCCN2C)ccc1Nc1ncc2c(n1)c(-c1ccsc1)c(OCC1CC1)c(=O)n2C (stereo not drawn) [Example 47] , its IC50 with PIk1 (Homo sapiens) was recorded as < 0.01 µM

Considering COc1cc(C(=O)NC2CCN(C)CC2)ccc1Nc1ncc2c(n1)c(-c1cncnc1)c(OC)c(=O)n2C [Example 34] , its IC50 with PIk1 (Homo sapiens) was recorded as < 1 µM

Considering C/C=C/c1c(OCC2CC2)c(=O)n(C)c2cnc(Nc3ccc(C(=O)NC4CCN(C)CC4)cc3Cl)nc12 [Example 67] , its IC50 with PIk1 (Homo sapiens) was recorded as < 0.01 µM

Considering C/C=C/c1c(OC(C)CC)c(=O)n(C)c2cnc(Nc3ccc(C(=O)NC4CCN(C)CC4)cc3OC)nc12 (stereo not drawn) [Example 40] , its IC50 with PIk1 (Homo sapiens) was recorded as < 0.1 µM
